biological target: T1, Soluble heterodimeric CD3 protein (hCD3-epsilon/hCD3-delta) with either a human Fc tag (hFcΔAdp/hFc) or a … (human, UniProt P07766 23-126; P04234 22-105); experiment: SPR Biacore 25C antigen-capture
T1 construct: also called hCD3ε/δ; not shown: Fc tag: human (hFcΔAdp/hFc)
T1 sequence (P07766 23-126 limits assumed, stated change not applied, chain 1 of 2): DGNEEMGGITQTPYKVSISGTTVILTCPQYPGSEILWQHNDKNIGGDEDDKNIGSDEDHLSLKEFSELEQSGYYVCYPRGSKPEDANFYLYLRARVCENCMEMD
T1 sequence (P04234 22-105 limits assumed, stated change not applied, chain 2 of 2): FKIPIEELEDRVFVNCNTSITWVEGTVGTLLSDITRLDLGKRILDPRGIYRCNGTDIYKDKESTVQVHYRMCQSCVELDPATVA
reported.property: pKd
Scale explanation: pKd corresponds to minus log10 of a concentration expressed in moles per litre.

Solved cases (5 shown):
1. H1H5763P (antibody, human IgG1, V domains shown, H1H: human IgG1 Fc; divalent) VH: QVQLVESGGGVVQPGRSLRLSCAASGLTFSSYGMHWVRQAPGKGLEWVAVISYDGSNKYYTDSVKGRFTISRDNSKNTLYLQMNSLRAEDTAVYYCAKGAMVRGVPYNYYYGMDVWGQGTTVTVSS VL: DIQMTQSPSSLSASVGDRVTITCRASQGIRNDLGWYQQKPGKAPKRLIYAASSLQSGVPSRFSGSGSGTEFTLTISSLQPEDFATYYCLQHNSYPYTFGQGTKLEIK; 7.03
2. H2M2711N (antibody, V domains shown, H2M: mouse IgG2 Fc, human variable regions; divalent) VH: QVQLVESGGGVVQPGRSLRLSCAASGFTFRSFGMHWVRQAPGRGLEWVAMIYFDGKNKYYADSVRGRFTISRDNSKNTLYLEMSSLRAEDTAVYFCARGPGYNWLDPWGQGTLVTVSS VL: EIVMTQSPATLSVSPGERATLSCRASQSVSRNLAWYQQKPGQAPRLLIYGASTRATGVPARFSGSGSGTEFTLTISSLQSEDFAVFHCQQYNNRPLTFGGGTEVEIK; 9.82
3. H2M2774N (antibody, mouse IgG2, V domains shown, H2M: mouse IgG2 Fc, human variable regions; divalent) VH: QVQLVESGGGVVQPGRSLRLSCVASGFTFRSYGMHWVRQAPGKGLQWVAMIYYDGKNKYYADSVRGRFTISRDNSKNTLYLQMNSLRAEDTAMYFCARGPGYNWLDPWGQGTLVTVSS VL: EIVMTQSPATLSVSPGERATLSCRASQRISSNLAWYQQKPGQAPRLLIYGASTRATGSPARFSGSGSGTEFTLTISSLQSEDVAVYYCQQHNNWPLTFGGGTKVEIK; 9.87
4. H2M2777N (antibody, mouse IgG2, V domains shown, H2M: mouse IgG2 Fc, human variable regions; divalent) VH: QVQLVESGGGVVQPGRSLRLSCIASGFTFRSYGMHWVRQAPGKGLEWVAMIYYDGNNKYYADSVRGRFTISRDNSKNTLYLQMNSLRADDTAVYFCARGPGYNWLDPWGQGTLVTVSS VL: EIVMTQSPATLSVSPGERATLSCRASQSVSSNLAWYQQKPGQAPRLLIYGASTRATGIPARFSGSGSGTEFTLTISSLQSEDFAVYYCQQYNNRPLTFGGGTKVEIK; 9.26
5. H2M2710N (antibody, V domains shown, H2M: mouse IgG2 Fc, human variable regions; divalent) VH: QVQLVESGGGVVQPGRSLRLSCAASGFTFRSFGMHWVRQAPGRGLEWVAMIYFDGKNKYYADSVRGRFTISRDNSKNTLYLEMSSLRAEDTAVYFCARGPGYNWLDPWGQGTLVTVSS VL: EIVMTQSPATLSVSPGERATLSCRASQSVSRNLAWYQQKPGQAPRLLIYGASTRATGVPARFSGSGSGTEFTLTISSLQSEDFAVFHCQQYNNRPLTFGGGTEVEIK; 9.82

Query :: Query: pKd; subject: H2M2708N (antibody, mouse IgG2, V domains shown, H2M: mouse IgG2 Fc, human variable regions; divalent) VH: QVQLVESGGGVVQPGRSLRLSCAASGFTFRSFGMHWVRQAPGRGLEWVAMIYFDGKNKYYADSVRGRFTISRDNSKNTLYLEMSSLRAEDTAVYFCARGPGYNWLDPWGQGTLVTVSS VL: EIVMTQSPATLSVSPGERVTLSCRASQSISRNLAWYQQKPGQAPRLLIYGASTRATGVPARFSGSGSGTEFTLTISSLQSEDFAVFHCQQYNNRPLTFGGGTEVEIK
Result :: 9.88

Query :: Report pKd for H2M2707N (antibody, mouse IgG2, V domains shown, H2M: mouse IgG2 Fc, human variable regions; divalent) VH: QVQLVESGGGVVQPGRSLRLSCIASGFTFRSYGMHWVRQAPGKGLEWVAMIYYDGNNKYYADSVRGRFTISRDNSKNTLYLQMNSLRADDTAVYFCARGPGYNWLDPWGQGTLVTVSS VL: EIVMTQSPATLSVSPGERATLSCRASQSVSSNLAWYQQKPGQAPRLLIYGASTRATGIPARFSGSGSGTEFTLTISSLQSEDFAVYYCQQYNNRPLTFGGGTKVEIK please.
Result :: 9.15

Query :: Which pKd reading was recorded for the binder H2M3563N (antibody, mouse IgG2, V domains shown, H2M: mouse IgG2 Fc, human variable regions; divalent) VH: EVHLVESGGGLVQPGRSLRLSCAASGFTFDDYTMHWVRQAPGKGLEWVSDISWNSGSIGYADSVKGRFTVSRDNAKNSLYLQMNSLRGEDTALYYCAKDMSGYGHYGKYGMDVWGQGTTVTVSS VL: DIQMTQSPSSLSASVGDRVTITCRASQSIRSYLNWYQQKPGKVPKLLIYAASSLQSGVPSRFSGSGSGTDFTLTINSLQPDDFATYYCQQTYSNPPITFGQGTRLEIK ?
Result :: 10.11

Query :: # input binder: H1H5795B (antibody, human IgG1, V domains shown, H1H: human IgG1 Fc; divalent) VH: EVQLVESGAEVKKPGASVKVSCKTSGYSFIGYYIHWMRQAPGQGLEWMGWINPKSGVTNYAQRFQGRVTMTRDTSISTAYMELSRLKSDDTAVYFCARMGDGAVFDFWGQGTLVTVSS VL: DIQLTQSPSSLSASVGDRVTITCRASQRISSFLNWYQQKPGKVPKLLIYTASNLQNGVPSRFSGTGSGTDFTLTISSLQPEDFATYYCQQSYRTPLTFGGGTKVDIKR ; wanted: its pKd
Result :: 9.84

The reported measurements were obtained from patent US20190127480A1.
